# Tested on: HL-60(TB) leukemia
# assaySummary: NCI-60 one-dose screen, 48 h
# conditionSummary: 10 µM unless noted
About 83,000 compounds went through this panel and 20% of them were active in at least one assay; those are over-represented in the sample as a whole. The source made the active and inactive calls. The calls were made as follows: active = growth percent below 10; inactive = the rest.
I would appreciate it if you answered using one of these outcomes: active, inactive

What did this assay record as the result for `CC1(C)[C@@H](O)CC[C@]2(C)[C@H]3CC[C@@H]4[C@H]5[C@H](c6cn(-c7ccccc7)nn6)CC[C@]5(CO)CC[C@@]4(C)[C@]3(C)CC[C@@H]12` ?
inactive

Another compound to check: `O=C(Nc1cccc([N+](=O)[O-])c1)c1cc2ccccc2cc1O`
active

Another compound to check: N#CC(Cc1cccc2ccccc12)c1cc2ccccc2[nH]1 (stereo unspecified)
inactive

----------
# System: HL-60(TB) leukemia
# assaySummary: NCI-60 one-dose screen, 48 h (100 = growth as untreated, 0 = no growth, -100 = all killed)
# conditionSummary: 10 µM unless noted
This is part of a sample that, as a whole, favours compounds with a hit. Of some 83,000 tested, about 20% had one in any assay.
propertyMeasured: growth (%)
Report the figure in % without appending any unit label.

Below: 4 compounds and their reported growth.
COc1ccc(-c2cnc(-c3ccncc3-c3cccc(OC)c3)o2)cc1 = 0.0287
COc1ccc(-c2c[nH]c(C(=O)O)c2-c2cc(OC)c3c(c2OC)OCO3)cc1 = 105
C[C@@H]1CN(Cc2ccc(/C=C/c3n[nH]c4ccc5nc(-c6cn[nH]c6C(F)(F)F)c6c(c5c34)CCCC6)cc2)C[C@H](C)O1 = 46.7
Clc1cccc(Cc2cn3cc(-c4ccccc4)nc3s2)c1 = 66.1

State its growth on HL-60(TB) leukemia: `N#CC[C@H](C1CCCC1)n1cc(-c2ncnc3[nH]ccc23)cn1`
97.7

Another compound to check: `COc1cc2c(-c3nc4cc(Cl)c(F)cc4s3)cc(=O)oc2c(C)c1OC`
-56.2

Another compound to check: C=C(NC(=O)C(=C)NC(=O)c1csc(C2=NC3c4csc(n4)C4NC(=O)c5csc(n5)C(C(C)(O)C(C)O)NC(=O)C5CSC(=N5)C(=CC)NC(=O)C(C(C)O)NC(=O)c5csc(n5)C3(CC2)NC(=O)C(C)NC(=O)C(=C)NC(=O)C(C)NC(=O)C(C(C)CC)NC2C=Cc3c(C(C)O)cc(nc3C2O)C(=O)OC4C)n1)C(N)=O (stereo not drawn)
3.83

Another compound to check: `NC(=O)c1cc(I)ccc1NC(=O)/C=C/c1ccccc1`
0.952

----------
Overview of reported growth across a group of compounds:
# Test system: HL-60(TB) leukemia
# assaySummary: NCI-60 one-dose screen, 48 h (100 = growth as untreated, 0 = no growth, -100 = all killed)
# conditionSummary: 10 µM unless noted
Compounds without any hit were thinned out: in the full panel of roughly 83,000, 20% have a hit.
Report the figure in % without appending any unit label.

Below: 8 compounds and their reported growth.
COc1ccc(/C(=C\c2cc(OC)c(OC)c(OC)c2)C(=O)Nc2nc3ccc(Cl)cc3s2)cc1 = 81.4
N=S(c1ccccc1[N+](=O)[O-])c1ccccc1[N+](=O)[O-] = 10.1
Cc1cc(O)c2c(c1)C1OC(=O)CCCCCN1C1=C2C(=O)c2cccc(OC3CC(O)C(O)C(C)O3)c2C1=O (stereo not given) = 79.2
N=C(N)SCc1cccc2c(CSC(=N)N)cccc12 = 93.4
COc1ccc2c(c1)c(-c1nc(-c3cn(C)c4ccncc34)cs1)cn2C = 81.7
COc1ccc(-c2nn(-c3ccc(NC(=O)c4cc(C(F)(F)F)cc(C(F)(F)F)c4)cc3)cc2-c2ccncc2)cc1Cl = 73.6
O=c1cc(-c2nccc3c2[nH]c2ccccc23)c2cc(Cl)ccc2o1 = 0.737
COc1ccc(S(=O)(=O)N(C)c2oc(-c3ccc(Cl)cc3)nc2C#N)cc1 = 63.9

Can you share its growth? I mean this compound: `COc1ccc2nc(SCC(=O)Nc3ccccc3C)[nH]c2c1`
100

Another compound to check: O=C1Nc2ccc(Br)cc2C12Oc1ccccc1C1CC(c3ccc(F)cc3)=NN12 (stereo not given)
92.9

Another compound to check: `COc1ccc(OC)c(Nc2nnc(-c3ccc(Cl)cc3)o2)c1`
94.8

Another compound to check: `CCCNc1nc(N(C)O)nc(N(C)O)n1`
3.47

Another compound to check: `COC(=O)c1ccccc1N(C)C`
87.6

Another compound to check: `O=C1c2ccccc2C(=O)c2c1cc1c(c2[N+](=O)[O-])OCO1`
7.66

Another compound to check: `C/C(=C(/c1ccc(O)cc1)c1ccc(OCCN(C)C)cc1)c1ccccc1`
76

Data origin, for the record: PubChem BioAssay (NCI)
